Would you mind telling me the reported pIC50 of each entry?
- Measurement Protocol: Substrate activity at Trypanosoma cruzi type I nitro reductase assessed as reduction in NADH incubated for 120 sec by spectrophotometric analysis

Note to self: pIC50 recorded for COc1cc(OC)cc(-n2cc(Cn3cnc([N+](=O)[O-])n3)nn2)c1 was 6.65

Note to self: pIC50 recorded for O=[N+]([O-])c1ncn(Cc2cn(-c3ccc(Cl)cc3)nn2)n1 was 6.5

Note to self: pIC50 recorded for O=[N+]([O-])c1ncn(Cc2cn(-c3ccc(F)cc3)nn2)n1 was 5.95

Note to self: pIC50 recorded for O=[N+]([O-])c1ccc(-n2cc(Cn3cnc([N+](=O)[O-])n3)nn2)cc1 was 6.21

Note to self: pIC50 recorded for CSc1ccc(-n2cc(Cn3cnc([N+](=O)[O-])n3)nn2)cc1 was 6.67

Note to self: pIC50 recorded for O=[N+]([O-])c1ncn(Cc2cn(-c3ccccc3)nn2)n1 was 5.86

Source of measurements: ChEMBL document CHEMBL5528040
